Origin of measurements: patent US20210380703A1

# TGT: T1, biotinylated goat anti-human kappa light chain
# T1 construct: positive control of the ELISA
# EXPERIMENT_DESCRIPTION: ELISA, positive control; further: test concentration or dose not given here
PROPERTY_NAME: optical density (OD)

BINDER	ENDPOINT_UNIT	ENDPOINT_VALUE
371_G09 (antibody, V domains shown, Group III) VH: EVQLLESGGGLVQPGGSLRLSCAASGFTFSSYSMNWVRQAPGKGLEWVANINYNGGYTGYADSVKGRFTISRDNSKNTLYLQMNSLRAEDTAVYYCARGANWHDTALDYWGQGTLVTVSS VL: DIQMTQSPSSLSASVGDRVTITCRASQSILSYLNWYQQKPGKAPKLVIYAATSRASGVPSRFSGSGSGTDFTLTISSLQPEDFATYYCQQSDSTPLTFGGGTKVEIK	OD	3.58
375_H07 (antibody, V domains shown, Group III) VH: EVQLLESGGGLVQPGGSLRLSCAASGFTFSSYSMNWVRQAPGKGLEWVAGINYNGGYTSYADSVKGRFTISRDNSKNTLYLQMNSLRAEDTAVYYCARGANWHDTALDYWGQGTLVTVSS VL: DIQMTQSPSSLSASVGDRVTITCRASQSILSYLNWYQQKPGKAPKLLIYAATSLASGVPSRFSGSGSGTDFTLTISSLQPEDFATYYCQQSYSSPLTFGGGTKVEIK	OD	3.27
373_C07 (antibody, V domains shown, Group III) VH: EVQLLESGGGLVQPGGSLRLSCAASGFTFDSYSMNWVRQAPGKGLEWVAGINYNSGYTSYADSVKGRFTISRDNSKNTLYLQMNSLRAEDTAVYYCARGANWHDTHLDYWGQGTLVTVSS VL: DIQMTQSPSSLSASVGDRVTITCRASQSILTYLNWYQQKPGKAPKLVIYAATSRASGVPSRFSGSGSGTDFTLTISSLQPEDFATYYCQQSYETPLTFGGGTKVEIK	OD	3.3
